- subject-of-test: indoleamine 2, 3-dioxygenase (IDO1) (Homo sapiens)
- Sequence (P14902 whole entry): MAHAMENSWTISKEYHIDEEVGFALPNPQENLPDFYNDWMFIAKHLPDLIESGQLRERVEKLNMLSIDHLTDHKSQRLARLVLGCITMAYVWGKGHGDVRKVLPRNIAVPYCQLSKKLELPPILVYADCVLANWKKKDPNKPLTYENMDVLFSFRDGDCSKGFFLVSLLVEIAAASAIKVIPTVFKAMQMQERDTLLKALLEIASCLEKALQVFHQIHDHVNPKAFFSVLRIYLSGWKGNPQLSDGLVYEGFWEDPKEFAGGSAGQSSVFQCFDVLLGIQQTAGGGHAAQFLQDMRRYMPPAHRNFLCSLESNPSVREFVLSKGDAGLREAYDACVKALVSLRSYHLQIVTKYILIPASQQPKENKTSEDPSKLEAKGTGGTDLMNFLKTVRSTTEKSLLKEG
- experimental-details: HeLa IDOi assay (kynurenine detection by mass spectrometry)
- Type: cell-based
- Design: human epithelial HeLa cells (CCL-2; host or cells: HeLa cells stimulated with human IFN-γ
- test-conditions: IFN-γ stimulated human epithelial HeLa cells, 2 days
parameter-measured: EC50 (nM)

Examples with answers:
>>> print(df.to_string())
                                   compound                           subject_of_test  unit_abbreviation  result_value
0  Cc1csc(Nc2cc(C(C)CC(=O)O)ccc2N(CC(C)C)CC(C)C)n1 (centres unmarked)  indoleamine 2, 3-dioxygenase (IDO1) (Homo sapiens)                 nM           316
1  CC(C)CN(c1ccc(C(C)CC(=O)O)cc1Nc1nnc(C(F)(F)F)s1)C1CCCCC1 (centres unmarked)  indoleamine 2, 3-dioxygenase (IDO1) (Homo sapiens)                 nM          3.16
2  CC(C)CN(CC(C)C)c1ccc(C(C)CC(=O)O)cc1Nc1nnc(-c2ccccc2)s1 (centres unmarked)  indoleamine 2, 3-dioxygenase (IDO1) (Homo sapiens)                 nM          31.6

P = CC(C)CN(c1ccc([C@H](C)CC(=O)O)cc1Nc1nnc(C2CC2)[nH]1)C1CCCCC1
Q = CC(C)CN(c1ccc([C@H](C)CC(=O)O)cc1Nc1nc(Cl)ns1)C1CCCCC1
R = CC(C)CN(CC(C)C)c1ccc(C(C)CC(=O)O)cc1Nc1nnc(C(F)(F)F)s1 (centres unmarked)
Task item: Rank the 3 compounds: largest EC50 first, smallest last. Response field: labels, in requested order.
Reply: P, Q, R

Numbers sourced from patent US10472336B2.
